testTarget: T1, Extracellular domain of cyno PD1 (cPD1-ECD) (Macaca fascicularis (cynomolgus))
T1 construct: Expressed with a hexahistidine tag or as Fc fusion; also called cynoPD1-ECD; cynoPD-1-ECD
T1 chain: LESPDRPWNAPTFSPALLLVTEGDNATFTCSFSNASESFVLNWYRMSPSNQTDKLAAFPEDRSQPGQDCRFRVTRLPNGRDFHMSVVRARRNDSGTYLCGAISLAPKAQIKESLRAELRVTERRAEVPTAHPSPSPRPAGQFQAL
assayNotes: SPR ProteOn, captured mAb, cynoPD1-ECD analyte;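 further: ProteOn XPR36 SPR with antibodies held by anti-IgG Fc on a GLC chip, kinetic constants obtained by fitting to a Langmuir 1:1 binding model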
Each entry below lists one item and its recorded Kd value.
Kindly provide the numeric value in nM only, without the unit symbol.

Please review the entries below; each comes with its answer.
PD1B71 (antibody, V domains shown, Tested as IgG2sigma/kappa; also called PD1H108/PH9L3) VH: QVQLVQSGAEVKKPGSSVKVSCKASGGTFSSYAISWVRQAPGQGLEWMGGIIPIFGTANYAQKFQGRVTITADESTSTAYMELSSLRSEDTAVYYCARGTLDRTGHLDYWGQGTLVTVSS VL: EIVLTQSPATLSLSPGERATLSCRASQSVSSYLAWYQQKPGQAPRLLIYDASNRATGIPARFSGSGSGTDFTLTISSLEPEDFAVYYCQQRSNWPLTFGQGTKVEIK = 52
PD1B201 (antibody, V domains shown, also called PD1H164/PD1L190) VH: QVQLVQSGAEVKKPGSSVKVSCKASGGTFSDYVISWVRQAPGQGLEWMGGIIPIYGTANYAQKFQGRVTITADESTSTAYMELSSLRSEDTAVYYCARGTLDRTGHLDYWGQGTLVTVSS VL: EIVLTQSPATLSLSPGERATLSCRASQSVSNYLAWYQQKPGQAPRLLIYDASNRATGIPARFSGSGSGTDFTLTISSLEPEDFAVYYCQQRNYWPLTFGQGTKVEIK = 0.96
PD1B11 (antibody, V domains shown, Tested as IgG2sigma/kappa; also called PD1H3/PH9L3) VH: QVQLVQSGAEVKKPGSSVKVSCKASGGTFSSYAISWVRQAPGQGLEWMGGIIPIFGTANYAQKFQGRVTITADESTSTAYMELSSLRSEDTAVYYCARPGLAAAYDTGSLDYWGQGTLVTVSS VL: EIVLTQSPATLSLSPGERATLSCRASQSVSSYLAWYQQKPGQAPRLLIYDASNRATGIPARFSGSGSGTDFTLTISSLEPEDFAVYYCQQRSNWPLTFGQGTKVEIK = 26.9
PD1B195 (antibody, V domains shown, also called PD1H170/PD1L67) VH: QVQLVQSGAEVKKPGSSVKVSCKASGGTFSSYAISWVRQAPGQGLEWMGGIIPIFDTANYAQKFQGRVTITADESTSTAYMELSSLRSEDTAVYYCARPGLAAAYDTGSLDYWGQGTLVTVSS VL: EIVLTQSPATLSLSPGERATLSCRASQSVDSYLAWYQQKPGQAPRLLIYDASNRATGIPARFSGSGSGTDFTLTISSLEPEDFAVYYCQQREYWPLTFGQGTKVEIK = 0.94
PD1B70 (antibody, V domains shown, Tested as IgG2sigma/kappa; also called PD1H107/PH9L3) VH: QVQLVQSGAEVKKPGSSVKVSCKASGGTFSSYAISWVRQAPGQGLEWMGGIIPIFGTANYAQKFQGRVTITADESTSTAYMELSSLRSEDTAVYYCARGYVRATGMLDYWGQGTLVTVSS VL: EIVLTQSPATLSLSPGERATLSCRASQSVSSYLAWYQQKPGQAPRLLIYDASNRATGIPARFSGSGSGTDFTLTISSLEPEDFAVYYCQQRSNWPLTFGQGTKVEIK = 89

Request: Identify Kd associated with the binder PD1B200 (antibody, V domains shown, also called PD1H164/PD1L168) VH: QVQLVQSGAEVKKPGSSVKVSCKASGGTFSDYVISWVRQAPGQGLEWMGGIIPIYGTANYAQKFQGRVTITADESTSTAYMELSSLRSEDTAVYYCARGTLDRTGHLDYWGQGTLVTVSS VL: EIVLTQSPATLSLSPGERATLSCRASQSVDNYLAWYQQKPGQAPRLLIHDASNRATGIPARFSGSGSGTDFTLTISSLEPEDFAVYYCQQRSAWPLTFGQGTKVEIK
Result: 1.11

Request: Identify Kd associated with the binder PD1B198 (antibody, V domains shown, also called PD1H163/PD1L187) VH: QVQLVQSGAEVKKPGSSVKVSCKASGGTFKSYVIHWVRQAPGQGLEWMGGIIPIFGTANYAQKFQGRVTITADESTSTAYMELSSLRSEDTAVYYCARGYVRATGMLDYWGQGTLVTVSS VL: EIVLTQSPATLSLSPGERATLSCRASQSVSSYLAWYQQKPGQAPRLLIEDASSRATGIPARFSGSGSGTDFTLTISSLEPEDFAVYYCQQRAEWPLTFGQGTKVEIK
Result: 11.2

Request: Identify Kd associated with the binder PD1B194 (antibody, V domains shown, also called PD1H170/PD1L71) VH: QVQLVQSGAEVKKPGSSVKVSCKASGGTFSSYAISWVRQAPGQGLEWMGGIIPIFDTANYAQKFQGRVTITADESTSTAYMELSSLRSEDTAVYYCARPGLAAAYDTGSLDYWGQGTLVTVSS VL: EIVLTQSPATLSLSPGERATLSCRASQSVRSYLAWYQQKPGQAPRLLIYDASYRATGIPARFSGSGSGTDFTLTISSLEPEDFAVYYCQQRDYWPLTFGQGTKVEIK
Result: 0.6
